The measured values listed here are drawn from paper PMC11314063.

# System: HepG2
# assay-summary: SRB cytotoxicity assay, HepG2
# Type: cell-based
# condition: Homo sapiens, HepG2, 48 h, read-out: IC50 Cytotoxicity HepG2
reported-metric: IC50

| molecule | reported-metric | result |
| --- | --- | --- |
| CC#CC#CC#C/C=C/CCC(CCO)O[C@@H]1O[C@H](CO)[C@@H](O)[C@H](O)[C@H]1O (stereo partly shown) | IC50 | > 200 µM |
| CC#CC#CC#CC=CC1OCCCC1OC(C)=O (stereo not shown) | IC50 | > 200 µM |
| C=CCCCCC[C@H](O)[C@@H](O)[C@H](C#CC#CCCC)OC | IC50 | > 200 µM |
| O=c1cc(-c2ccc(O)c(O)c2)oc2cc(O)cc(O)c12 | IC50 | 175 µM |

---

# subject-of-test: DNA Topo I (Homo sapiens)
# Construct: purchased ThermoFisher, Waltham, MA, USA
# assay-summary: Topo I inhibition assay (DNA relaxation assay)
# Format: biochemical
# condition: at 400 μM; read-out: percentage inhibition on Topo I activity
Quick list: inhibition at 400 µM per entry.
reported-metric: inhibition at 400 µM (%)

| molecule | result-number |
| --- | --- |
| COc1ccc([C@@H]2CC(=O)c3ccc(O)c(O[C@@H]4O[C@H](CO)[C@@H](O)[C@H](O)[C@H]4O)c3O2)cc1O [Compound 16] | 10.9 |
| COc1ccc(-c2oc3cc(O[C@@H]4O[C@H](CO)[C@@H](O)[C@H](O)[C@H]4O)cc(O)c3c(=O)c2OC)cc1O [Compound 13] | 38.6 |
| COc1c(O[C@@H]2O[C@H](CO)[C@@H](O)[C@H](O)[C@H]2O)cc2oc(-c3ccc(O)c(O)c3)c(OC)c(=O)c2c1O [Compound 12] | 26.4 |
| OCC(O)CC#CC#Cc1ccccc1 (centres unmarked) [Compound 21] | 23 |
| COc1ccc(/C=C/C(=O)c2ccc(OC)cc2O)cc1 [Compound 3] | 24.6 |
| O=c1c(O[C@@H]2O[C@H](CO)[C@H](O)[C@H](O)[C@H]2O)c(-c2ccc(O)cc2)oc2cc(O)cc(O)c12 [Compound 11] | 28.6 |
| O=C1/C(=C/c2ccc(O)c(O)c2)Oc2c1ccc(O[C@@H]1O[C@H](CO)[C@@H](O)[C@H](O)[C@H]1O)c2O [Compound 18] | 46.7 |
| CC#CC#CC#Cc1ccccc1 [Compound 23] | 15.2 |

---

# subject-of-test: DNA Topo I (Homo sapiens, UniProt P11387)
# Sequence (P11387 1-765): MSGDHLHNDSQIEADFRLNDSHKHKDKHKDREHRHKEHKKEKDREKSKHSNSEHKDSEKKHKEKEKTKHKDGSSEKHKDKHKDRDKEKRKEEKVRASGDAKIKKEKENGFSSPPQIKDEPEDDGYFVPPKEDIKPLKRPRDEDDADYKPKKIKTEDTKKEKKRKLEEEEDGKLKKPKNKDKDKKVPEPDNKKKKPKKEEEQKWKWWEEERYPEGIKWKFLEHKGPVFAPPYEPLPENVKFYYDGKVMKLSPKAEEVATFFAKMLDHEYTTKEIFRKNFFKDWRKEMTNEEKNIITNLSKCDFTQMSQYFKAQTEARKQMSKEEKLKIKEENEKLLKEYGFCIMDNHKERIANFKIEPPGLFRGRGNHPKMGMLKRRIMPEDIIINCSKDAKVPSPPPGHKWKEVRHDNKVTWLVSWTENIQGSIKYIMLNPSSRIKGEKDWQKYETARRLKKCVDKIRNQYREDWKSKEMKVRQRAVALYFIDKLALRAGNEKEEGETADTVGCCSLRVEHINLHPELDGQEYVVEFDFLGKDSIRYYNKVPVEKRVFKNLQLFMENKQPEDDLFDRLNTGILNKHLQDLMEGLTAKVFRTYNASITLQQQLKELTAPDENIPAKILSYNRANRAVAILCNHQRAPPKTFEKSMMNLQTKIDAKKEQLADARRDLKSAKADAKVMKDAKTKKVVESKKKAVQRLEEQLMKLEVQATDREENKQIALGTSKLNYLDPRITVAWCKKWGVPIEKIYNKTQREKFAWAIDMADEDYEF

| compound | subject-of-test | IC50 |
| --- | --- | --- |
| C=CCCCCC[C@H](O)[C@@H](O)[C@H](C#CC#CCCC)OC | DNA Topo I (Homo sapiens, UniProt P11387) | > 400 µM |
| O=c1c(O[C@@H]2O[C@H](CO)[C@H](O)[C@H](O)[C@H]2O)c(-c2ccc(O)cc2)oc2cc(O)cc(O)c12 | DNA Topo I (Homo sapiens, UniProt P11387) | > 400 µM |
| OCC(O)CC#CC#Cc1ccccc1 (centres unmarked) | DNA Topo I (Homo sapiens, UniProt P11387) | > 400 µM |
| COc1cc(O)c2c(=O)c(OC)c(-c3ccc(O)c(O)c3)oc2c1 | DNA Topo I (Homo sapiens, UniProt P11387) | > 400 µM |
| CC(=O)OC[C@H]1O[C@@H](Oc2ccc3c(c2O)O/C(=C\c2ccc(O)c(O)c2)C3=O)[C@H](O)[C@@H](O)[C@@H]1O | DNA Topo I (Homo sapiens, UniProt P11387) | 47.5 µM |
| CC#CC#CC#CC#CCCC(CO)O[C@@H]1O[C@H](CO)[C@@H](O)[C@H](O)[C@H]1O (some centres unmarked) | DNA Topo I (Homo sapiens, UniProt P11387) | > 400 µM |
| C=C[C@H](O)[C@H](/C=C/C#CC#CC#CC)O[C@@H]1O[C@H](CO)[C@@H](O)[C@H](O)[C@H]1O | DNA Topo I (Homo sapiens, UniProt P11387) | > 400 µM |
| OC[C@H](O)CC#CC#Cc1ccc(O)cc1 | DNA Topo I (Homo sapiens, UniProt P11387) | 301 µM |
| COc1ccc(-c2oc3cc(O)c(OC)c(O)c3c(=O)c2OC)cc1O | DNA Topo I (Homo sapiens, UniProt P11387) | 146 µM |
| CC#CC#CC#C/C=C/CCC(CCO)O[C@@H]1O[C@H](CO)[C@@H](O)[C@H](O)[C@H]1O (some centres unmarked) | DNA Topo I (Homo sapiens, UniProt P11387) | > 400 µM |
| COc1c(O[C@@H]2O[C@H](CO)[C@@H](O)[C@H](O)[C@H]2O)cc2oc(-c3ccc(O)c(O)c3)c(OC)c(=O)c2c1O | DNA Topo I (Homo sapiens, UniProt P11387) | > 400 µM |
| COc1ccc(-c2oc3c(O)c(OC)c(O[C@@H]4O[C@H](CO)[C@@H](O)[C@H](O)[C@H]4O)cc3c(=O)c2OC)cc1O | DNA Topo I (Homo sapiens, UniProt P11387) | > 400 µM |
| CC(O)CC#CC#Cc1ccccc1 (centres unmarked) | DNA Topo I (Homo sapiens, UniProt P11387) | 178 µM |
| CC#CC#CC#C/C=C/CCC(CO)O[C@@H]1O[C@H](CO)[C@@H](O)[C@H](O)[C@H]1O (some centres unmarked) | DNA Topo I (Homo sapiens, UniProt P11387) | > 400 µM |
| CC#CC#CC#CC=CC1OCCCC1OC(C)=O (centres unmarked) | DNA Topo I (Homo sapiens, UniProt P11387) | 218 µM |
| COc1ccc(-c2oc3cc(O[C@@H]4O[C@H](CO)[C@@H](O)[C@H](O)[C@H]4O)c(OC)c(O)c3c(=O)c2OC)cc1O | DNA Topo I (Homo sapiens, UniProt P11387) | > 400 µM |
| COc1ccc(/C=C/C(=O)c2ccc(OC)cc2O)cc1 | DNA Topo I (Homo sapiens, UniProt P11387) | > 400 µM |
